test system: wheat (Triticum aestivum); assay: Test C postemergence, visual plant response rating; type: in vivo; settings: Postemergence, 31 g ai/ha
# Wheat plant response rating (0 to 100 scale) per entry
property-name: Wheat plant response rating (0 to 100 scale)

INSERT INTO results (molecule, observed_measurement) VALUES
  ('CCO/N=C(/c1c(O)c(Cl)nn(C)c1=O)c1ccc(F)c2ccccc12 [Compound 211]', 0),
  ('CC(C)O/N=C(\c1c(O)c(Cl)nn(C)c1=O)c1ccc(F)c2ccccc12 [Compound 210]', 0),
  ('C#CCO/N=C(\c1cccc(Br)c1)c1c(O)c(C)nn(C)c1=O [Compound 278]', 40),
  ('CO/N=C(/c1ccc(Cl)c(Cl)c1)c1c(O)c(C)nn(C)c1=O [Compound 216]', 0),
  ('CO/N=C(\c1cc(Cl)c(F)c(Cl)c1)c1c(O)c(C)nn(C)c1=O [Compound 290]', 0),
  ('C#CCO/N=C(/c1c(O)c(C)nn(C)c1=O)c1cccc2cc(Cl)ccc12 [Compound 242]', 0),
  ('Cc1nn(C)c(=O)c(/C(=N/OC(C)C)c2cccc3cc(Cl)ccc23)c1O [Compound 245]', 0),
  ('CON=C(c1cc(F)cc(F)c1F)c1c(O)c(C)nn(C)c1=O [Compound 226]', 0),
  ('C#CCON=C(c1cccc(OC(F)F)c1)c1c(O)c(C)nn(C)c1=O [Compound 201]', 0),
  ('CC(C)O/N=C(\c1c(O)c(Cl)nn(C)c1=O)c1cc(Br)cc2ccccc12 [Compound 233]', 0),
  ('CON=C(c1cc(F)cc(F)c1F)c1c(O)c(C)nn(C)c1=O [Compound 227]', 0),
  ('CON=C(c1cccc(OC(F)F)c1)c1c(O)c(C)nn(C)c1=O [Compound 202]', 0),
  ('CON=C(c1cc(Cl)cc(Cl)c1F)c1c(O)c(C)nn(C)c1=O [Compound 299]', 30),
  ('C#CCO/N=C(\c1c(O)c(C)nn(C)c1=O)c1cc(Cl)cc2ccccc12 [Compound 191]', 0),
  ('C#CCON=C(c1cccc(OCC(F)(F)F)c1)c1c(O)c(C)nn(C)c1=O [Compound 197]', 0),
  ('C#CCO/N=C(/c1c(O)c(Cl)nn(C)c1=O)c1ccc(F)c2ccccc12 [Compound 205]', 20),
  ('Cc1nn(C)c(=O)c(C(=NOC(C)C)c2cc(Cl)cc(Cl)c2Cl)c1O [Compound 295]', 30),
  ('CO/N=C(\c1ccc(F)c(Cl)c1)c1c(O)c(C)nn(C)c1=O [Compound 219]', 0);

====

system: duck salad (Heteranthera limosa); experiment: Test D flooded paddy test, visual plant response rating; format: in vivo; settings: 250 g ai/ha, scale 0 to 100 (0 no effect, 100 complete control), 13 to 15 d
property-name: Plant response rating, Ducksalad (Flood)

INSERT INTO measurements (compound, observed_measurement) VALUES
  ('CON=C(c1cccc(OC(F)F)c1)c1c(O)c(C)nn(C)c1=O [Compound 202]', 0),
  ('CCO/N=C(/c1c(O)c(Cl)nn(C)c1=O)c1cc(Br)cc2ccccc12 [Compound 236]', 70),
  ('CO/N=C(/c1cccc(/C=C/Cl)c1)c1c(O)c(C)nn(C)c1=O [Compound 285]', 0);

====

# Galium plant response rating (0 to 100 scale) per entry
tested on: galium (catchweed bedstraw, Galium aparine); assay: Test C postemergence, visual plant response rating; format: in vivo; conditions: Postemergence, 31 g ai/ha
property-name: Galium plant response rating (0 to 100 scale)

INSERT INTO measurements (molecule, observed_measurement) VALUES
  ('CCON=C(c1cc(Cl)cc(Br)c1)c1c(O)c(C)nn(C)c1=O [Compound 180]', 90),
  ('C#CCO/N=C(/c1c(O)c(C)nn(C)c1=O)c1cc(Cl)cc2ccccc12', 80),
  ('CCO/N=C(\c1cc(Cl)cc(Cl)c1Cl)c1c(O)c(C)nn(C)c1=O', 90),
  ('CON=C(c1cc(Cl)cc(OC)c1)c1c(O)c(C)nn(C)c1=O', 90),
  ('C#CCO/N=C(/c1ccc(F)c(Cl)c1)c1c(O)c(C)nn(C)c1=O', 60),
  ('CCO/N=C(/c1c(O)c(C)nn(C)c1=O)c1cccc2cc(Cl)ccc12', 80);

====

tested on: foxtail, giant (giant foxtail, Setaria faberii); assay: Test A postemergence, visual plant response rating; type: in vivo; conditions: Postemergence, 125 g ai/ha; 0 to 100 scale (0 no effect, 100 complete control)
property-name: Foxtail, Giant plant response rating

INSERT INTO measurements (compound, tested_on, observed_measurement) VALUES
  ('C#CCO/N=C(/c1c(O)c(C)nn(C)c1=O)c1cc(Br)cc2ccccc12', 'foxtail, giant (giant foxtail, Setaria faberii)', 90),
  ('CON=C(c1cccc(C(F)(F)F)c1)c1c(O)c(C)nn(C)c1=O', 'foxtail, giant (giant foxtail, Setaria faberii)', 0),
  ('CON=C(c1c(O)c(C)nn(C)c1=O)c1ccc(OC)c2ccccc12', 'foxtail, giant (giant foxtail, Setaria faberii)', 20),
  ('CO/N=C(\c1ccc(F)cc1C)c1c(O)c(C)nn(C)c1=O', 'foxtail, giant (giant foxtail, Setaria faberii)', 0),
  ('CO/N=C(\c1cc(C(F)(F)F)ccc1Cl)c1c(O)c(C)nn(C)c1=O', 'foxtail, giant (giant foxtail, Setaria faberii)', 40),
  ('CO/N=C(\c1cccc(C(F)(F)F)c1)c1c(O)c(C)nn(C)c1=O', 'foxtail, giant (giant foxtail, Setaria faberii)', 10),
  ('CON=C(c1cccc(C2CC2)c1)c1c(O)c(C)nn(C)c1=O', 'foxtail, giant (giant foxtail, Setaria faberii)', 20),
  ('CO/N=C(\c1ccccc1C(C)C)c1c(O)c(C)nn(C)c1=O', 'foxtail, giant (giant foxtail, Setaria faberii)', 40),
  ('CCO/N=C(\c1c(O)c(Cl)nn(C)c1=O)c1cccc2ccccc12', 'foxtail, giant (giant foxtail, Setaria faberii)', 60),
  ('CCc1cccc(C(=NOC)c2c(O)c(C)nn(C)c2=O)c1', 'foxtail, giant (giant foxtail, Setaria faberii)', 0),
  ('CO/N=C(/c1ccccc1F)c1c(O)c(C)nn(C)c1=O', 'foxtail, giant (giant foxtail, Setaria faberii)', 0),
  ('CON=C(c1ccc(C)s1)c1c(O)c(C)nn(C)c1=O (mixture of isomers)', 'foxtail, giant (giant foxtail, Setaria faberii)', 0);

====

test system: foxtail, giant (giant foxtail, Setaria faberi); assay: Test C preemergence, visual plant response rating; format: in vivo; settings: Test C, 31 g ai/ha, 0 is no effect, 100 is complete control
# Foxtail, Giant plant response rating (0 to 100 scale) per entry
property-name: Foxtail, Giant plant response rating (0 to 100 scale)

INSERT INTO assay_data (compound, tested_on, observed_measurement) VALUES
  ('CCO/N=C(\c1cc(Cl)cc(Cl)c1Cl)c1c(O)c(C)nn(C)c1=O', 'foxtail, giant (giant foxtail, Setaria faberi)', 100),
  ('C#CCON=C(c1cc(Cl)cc(Cl)c1Cl)c1c(O)c(C)nn(C)c1=O', 'foxtail, giant (giant foxtail, Setaria faberi)', 80),
  ('CO/N=C(/c1c(O)c(C)nn(C)c1=O)c1cccc2cc(SC)ccc12', 'foxtail, giant (giant foxtail, Setaria faberi)', 0),
  ('C#CCO/N=C(/c1c(O)c(Cl)nn(C)c1=O)c1ccc(F)c2ccccc12', 'foxtail, giant (giant foxtail, Setaria faberi)', 80),
  ('CCON=C(c1cc(Cl)cc(Br)c1)c1c(O)c(C)nn(C)c1=O', 'foxtail, giant (giant foxtail, Setaria faberi)', 50),
  ('Cc1nn(C)c(=O)c(C(=NOCC2CC2)c2cc(Cl)cc(Cl)c2Cl)c1O', 'foxtail, giant (giant foxtail, Setaria faberi)', 90),
  ('CO/N=C(\c1c(OC(C)=O)c(Cl)nn(C)c1=O)c1cc(Br)cc2ccccc12', 'foxtail, giant (giant foxtail, Setaria faberi)', 30),
  ('CO/N=C(/c1c(O)cnn(C)c1=O)c1ccc(F)c2ccccc12', 'foxtail, giant (giant foxtail, Setaria faberi)', 0),
  ('CON=C(c1cc(Cl)cc(Cl)c1F)c1c(O)c(C)nn(C)c1=O [Compound 153]', 'foxtail, giant (giant foxtail, Setaria faberi)', 90),
  ('CON=C(c1cc(Cl)cc(Cl)c1F)c1c(O)c(C)nn(C)c1=O [Compound 299]', 'foxtail, giant (giant foxtail, Setaria faberi)', 100),
  ('C#CCO/N=C(/c1ccc(F)c(Br)c1)c1c(O)c(C)nn(C)c1=O', 'foxtail, giant (giant foxtail, Setaria faberi)', 10),
  ('CON=C(c1cc(C)cc(Cl)c1)c1c(O)c(C)nn(C)c1=O', 'foxtail, giant (giant foxtail, Setaria faberi)', 70),
  ('CO/N=C(/c1c(O)c(Cl)nn(C)c1=O)c1ccc(F)c2ccccc12', 'foxtail, giant (giant foxtail, Setaria faberi)', 30),
  ('C#CCO/N=C(/c1c(O)c(C)nn(C)c1=O)c1cccc2cc(Cl)ccc12', 'foxtail, giant (giant foxtail, Setaria faberi)', 80),
  ('C=CCO/N=C(/c1c(O)c(C)nn(C)c1=O)c1cccc2cc(Cl)ccc12', 'foxtail, giant (giant foxtail, Setaria faberi)', 80),
  ('CO/N=C(/c1ccc(Cl)c(Cl)c1)c1c(O)c(C)nn(C)c1=O', 'foxtail, giant (giant foxtail, Setaria faberi)', 0),
  ('C#CCO/N=C(\c1ccc(F)c(Br)c1)c1c(O)c(C)nn(C)c1=O', 'foxtail, giant (giant foxtail, Setaria faberi)', 10),
  ('CC(C)O/N=C(/c1c(O)cnn(C)c1=O)c1ccc(F)c2ccccc12', 'foxtail, giant (giant foxtail, Setaria faberi)', 0);
